# System: CCRIS mutagenicity, Ames/micronucleus/aberration tests
# protocolNotes: CCRIS mutagenicity studies
# protocolConditions: Test System: AMES SALMONELLA TYPHIMURIUM; Strain/Indicator: TA98; Metabolic Activation: NONE
Activity calls are given as the source filed them. The rule behind the calls is not given here.
Valid outcomes are listed here; reply with one: class 1 = active, class 0 = inactive

So what was the verdict on `COc1cc(C(=O)OCCCN2CCCN(CCCOC(=O)c3cc(OC)c(OC)c(OC)c3)CC2)cc(OC)c1OC` in this test?
class 0

So what was the verdict on `CO[C@@]1(NC(=O)CSC[C@@H](N)C(=O)O)C(=O)N2C(C(=O)O)=C(CSc3nnnn3C)CS[C@@H]21` in this test?
class 0

So what was the verdict on NC(Cn1ccnc1)C(=O)O (stereo not drawn) in this test?
class 0

So what was the verdict on `O=[N+]([O-])c1ccc2ccc3cc4c(c5ccc1c2c35)C=C[C@H](O)[C@H]4O` in this test?
class 1

So what was the verdict on `Nc1ccc([N+](=O)[O-])cc1N` in this test?
class 1

So what was the verdict on `Oc1ccccc1O` in this test?
class 0

So what was the verdict on `CC(=O)Nc1ccc(CC(=O)O)cc1` in this test?
class 0

So what was the verdict on CC(C)NCC(O)COc1cccc2[nH]ccc12 (stereo not drawn) in this test?
class 0

So what was the verdict on CC(C)(Oc1ccc(C2CC2(Cl)Cl)cc1)C(=O)O (stereo not drawn) in this test?
class 0

So what was the verdict on `Nc1ccc2ccc3cc4ccccc4c4ccc1c2c34` in this test?
class 1

So what was the verdict on `Nc1cc(-c2ccncc2)c[nH]c1=O` in this test?
class 0

So what was the verdict on `O=[N+]([O-])c1ccc2ccc3c4c(cc5ccc1c2c53)[C@H](O)[C@@H](O)C=C4` in this test?
class 1

So what was the verdict on CC(C)NCC(O)c1ccc2ccccc2c1 (stereo not drawn) in this test?
class 0

So what was the verdict on `O=[N+]([O-])c1ccc2ccc3cc4ccccc4c4ccc1c2c34` in this test?
class 1

So what was the verdict on `O=C1CCCc2cc([N+](=O)[O-])c3ccccc3c21` in this test?
class 1

So what was the verdict on `O=[N+]([O-])c1ccc2c(ccc3cc4c(ccc5ccccc54)cc32)c1` in this test?
class 1

So what was the verdict on `O=[N+]([O-])c1cc2c3c(c1)CCc1c4c(cc(c1-3)CC2)CCCC4` in this test?
class 1

So what was the verdict on `O=[N+]([O-])c1ccc2ccc3c4ccccc4cc4ccc1c2c43` in this test?
class 1

So what was the verdict on `O=C(O)COc1cc(Cl)c(Cl)cc1Cl` in this test?
class 0

So what was the verdict on `CCOP(=S)(OCC)SCCl` in this test?
class 0

So what was the verdict on `O=[N+]([O-])c1ccc2ccc3c([N+](=O)[O-])c4ccccc4c4ccc1c2c34` in this test?
class 1

So what was the verdict on CCOC(=O)Nc1cccc2c1CN(C)CC2c1ccc(Cl)cc1 (stereo not drawn) in this test?
class 0

So what was the verdict on `O=C1CCCc2c1ccc1c([N+](=O)[O-])c3ccccc3cc21` in this test?
class 0

Every entry's value here was drawn from PubChem BioAssay AID1259407.
